Where do the numbers come from? From the Human Domainome abundance scans (Beltran et al. 2025).

B1: SH3 and PX domain-containing protein 2B, residues 155 to 209; numbered along this chain, A1X283 (parent)
chain: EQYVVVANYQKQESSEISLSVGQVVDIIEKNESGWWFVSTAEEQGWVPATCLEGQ

- Variants of: B1
- assay_explanation: abundance fitness (aPCA) (normalised: wild type 0, dead -1); higher = more abundant; growth selection in yeast, the domain comes from the species named
- setup_conditions: Homo sapiens
readout_kind: abundance fitness
Write the value as a bare number.

Q. In one line, give reported abundance fitness of the entry `V25P` .
A. -0.825

Q. In one line, give reported abundance fitness of the entry `I28E` .
A. -0.475

Q. In one line, give reported abundance fitness of the entry `L52M` .
A. -0.168

Q. In one line, give reported abundance fitness of the entry `G54E` .
A. 0.11

Q. In one line, give reported abundance fitness of the entry `V47T` .
A. -0.552

Q. In one line, give reported abundance fitness of the entry `L19K` .
A. -0.957

Q. In one line, give reported abundance fitness of the entry `D26T` .
A. -0.109

Q. In one line, give reported abundance fitness of the entry `Q12I` .
A. -0.19

Q. In one line, give reported abundance fitness of the entry `A49E` .
A. -0.273

Q. In one line, give reported abundance fitness of the entry `G22R` .
A. -0.549

Q. In one line, give reported abundance fitness of the entry `T40K` .
A. -0.035

Q. In one line, give reported abundance fitness of the entry `T50G` .
A. 0.001

Q. In one line, give reported abundance fitness of the entry `G34W` .
A. -0.708

Q. In one line, give reported abundance fitness of the entry `K11W` .
A. -0.496

Q. In one line, give reported abundance fitness of the entry `E53I` .
A. -0.289

Q. In one line, give reported abundance fitness of the entry `V21F` .
A. -0.286

Q. In one line, give reported abundance fitness of the entry `V24A` .
A. -0.008

Q. In one line, give reported abundance fitness of the entry `Q23L` .
A. -0.288

Q. In one line, give reported abundance fitness of the entry `A7F` .
A. -0.076

Q. In one line, give reported abundance fitness of the entry `V6A` .
A. 0.049

Q. In one line, give reported abundance fitness of the entry `A49N` .
A. 0.02

Q. In one line, give reported abundance fitness of the entry `V5M` .
A. -0.418

Q. In one line, give reported abundance fitness of the entry `Q2N` .
A. 0.13

Q. In one line, give reported abundance fitness of the entry `S39W` .
A. -0.371

Q. In one line, give reported abundance fitness of the entry `E13M` .
A. -0.025

Q. In one line, give reported abundance fitness of the entry `I17K` .
A. -0.692

Q. In one line, give reported abundance fitness of the entry `I28L` .
A. -0.041

Q. In one line, give reported abundance fitness of the entry `I17L` .
A. -0.055

Q. In one line, give reported abundance fitness of the entry `A49Y` .
A. -0.237

Q. In one line, give reported abundance fitness of the entry `S20C` .
A. -0.209

Q. In one line, give reported abundance fitness of the entry `V24F` .
A. -0.239

Q. In one line, give reported abundance fitness of the entry `E42C` .
A. -0.064

Q. In one line, give reported abundance fitness of the entry `G22L` .
A. -0.921

Q. In one line, give reported abundance fitness of the entry `Q23M` .
A. -0.039

Q. In one line, give reported abundance fitness of the entry `A49M` .
A. 0.003

Q. In one line, give reported abundance fitness of the entry `Y9G` .
A. -0.81

Q. In one line, give reported abundance fitness of the entry `L19F` .
A. -0.441

Q. In one line, give reported abundance fitness of the entry `I27P` .
A. -0.008

Q. In one line, give reported abundance fitness of the entry `W36N` .
A. -0.367

Q. In one line, give reported abundance fitness of the entry `K30F` .
A. -0.357

Q. In one line, give reported abundance fitness of the entry `C51T` .
A. -0.222

Q. In one line, give reported abundance fitness of the entry `A49Q` .
A. -0.327

Q. In one line, give reported abundance fitness of the entry `G54F` .
A. -0.143

Q. In one line, give reported abundance fitness of the entry `V5G` .
A. -0.37

Q. In one line, give reported abundance fitness of the entry `L19E` .
A. -0.768

Q. In one line, give reported abundance fitness of the entry `V24Y` .
A. -0.263
